- assay_details: Selectivity for Sprague-Dawley rat CB1 receptor over human recombinant CB2 receptor
measure: Ratio IC50
Could you keep your reply to the number by itself?

*Q* Query Ratio IC50 for CC(NC(=O)c1nn(-c2ccc(Cl)cc2Cl)c(-c2ccc(Br)cc2)c1Cn1cncn1)c1ccc(Br)cc1 (stereo not drawn)
*A* 4630

*Q* Query Ratio IC50 for Cc1cccc(N2CCN(C(=O)c3nn(-c4ccccc4Cl)c(-c4ccc(Br)cc4)c3Cn3cncn3)CC2)c1C
*A* 264

*Q* Query Ratio IC50 for O=C(c1nn(-c2ccccc2Cl)c(-c2ccc(Br)cc2)c1Cn1cncn1)N1CCN(c2cccc(Cl)c2)CC1
*A* 130

* * *

- assay_details: Selectivity for Sprague-Dawley rat CB1 receptor over human recombinant CB2 receptor
Record form. Attribute: Ratio IC50. Fill in for each entry.
Could you keep your reply to the number by itself?

*Q* Query Ratio IC50 for CC(NC(=O)c1nn(-c2ccccc2Cl)c(-c2ccc(Cl)cc2)c1Cn1cncn1)c1ccc(Cl)cc1Cl (stereo not drawn)
*A* 1660

*Q* Query Ratio IC50 for O=C(NC1(c2ccc(Cl)cc2)CC1)c1nn(-c2ccccc2Cl)c(-c2ccc(Br)cc2)c1Cn1cncn1
*A* 1510

*Q* Query Ratio IC50 for CC(NC(=O)c1nn(-c2ccccc2Cl)c(-c2ccc(Cl)cc2)c1Cn1cncn1)c1ccc(Br)cc1 (stereo not drawn)
*A* 1950

*Q* Query Ratio IC50 for CC(NC(=O)c1nn(-c2ccccc2Cl)c(-c2ccc(Br)cc2)c1Cn1cncn1)c1ccc(Cl)cc1Cl (stereo not drawn)
*A* 1100

*Q* Query Ratio IC50 for O=C(NC1CCCCC1)c1nn(-c2ccccc2Cl)c(-c2ccc(Br)cc2)c1Cn1cncn1
*A* 2540

*Q* Query Ratio IC50 for CC(NC(=O)c1nn(-c2ccccc2Cl)c(-c2ccc(Br)cc2)c1Cn1cncn1)c1ccc(Br)cc1 (stereo not drawn)
*A* 1630

*Q* Query Ratio IC50 for O=C(c1nn(-c2ccccc2Cl)c(-c2ccc(Br)cc2)c1Cn1cncn1)N1CCN(c2cccc(Cl)c2Cl)CC1
*A* 262

*Q* Query Ratio IC50 for O=C(NC1(c2ccccc2)CC1)c1nn(-c2ccccc2Cl)c(-c2ccc(Br)cc2)c1Cn1cncn1
*A* 1620

* * *

- measured_target: Cannabinoid receptor 1 (Homo sapiens, UniProt P21554)
- Sequence (P21554 whole entry): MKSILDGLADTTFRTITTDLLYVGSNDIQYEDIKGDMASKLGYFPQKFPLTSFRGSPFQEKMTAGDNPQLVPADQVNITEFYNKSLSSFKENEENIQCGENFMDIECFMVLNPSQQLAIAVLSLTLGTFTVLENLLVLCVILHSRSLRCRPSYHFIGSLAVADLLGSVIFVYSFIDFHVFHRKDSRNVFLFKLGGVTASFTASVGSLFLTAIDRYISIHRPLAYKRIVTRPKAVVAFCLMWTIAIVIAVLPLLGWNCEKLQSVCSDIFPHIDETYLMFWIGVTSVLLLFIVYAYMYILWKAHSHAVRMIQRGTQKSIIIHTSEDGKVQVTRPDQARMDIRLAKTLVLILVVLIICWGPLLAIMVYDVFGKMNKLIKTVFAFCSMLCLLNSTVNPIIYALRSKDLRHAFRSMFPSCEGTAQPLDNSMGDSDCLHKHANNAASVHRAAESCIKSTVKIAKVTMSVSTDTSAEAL
- assay_details: Inverse agonist activity at human recombinant CB1 receptor expressed in CHO cells by luciferase reporter gene assay
measure: pIC50
For clarity, pIC50 is expressed as the negative log10 of concentration in mol/L.

*Q* Query pIC50 for CC(NC(=O)c1nn(-c2ccccc2Cl)c(-c2ccc(Br)cc2)c1Cn1cncn1)c1ccc(Br)cc1 (configuration not stated)
*A* 8.60

*Q* Query pIC50 for CC(NC(=O)c1nn(-c2ccc(Cl)cc2Cl)c(-c2ccc(Br)cc2)c1Cn1cncn1)c1ccc(Br)cc1 (configuration not stated)
*A* 7.55

* * *

- measured_target: Cannabinoid receptor 2 (Homo sapiens, UniProt P34972)
- Sequence (P34972 whole entry): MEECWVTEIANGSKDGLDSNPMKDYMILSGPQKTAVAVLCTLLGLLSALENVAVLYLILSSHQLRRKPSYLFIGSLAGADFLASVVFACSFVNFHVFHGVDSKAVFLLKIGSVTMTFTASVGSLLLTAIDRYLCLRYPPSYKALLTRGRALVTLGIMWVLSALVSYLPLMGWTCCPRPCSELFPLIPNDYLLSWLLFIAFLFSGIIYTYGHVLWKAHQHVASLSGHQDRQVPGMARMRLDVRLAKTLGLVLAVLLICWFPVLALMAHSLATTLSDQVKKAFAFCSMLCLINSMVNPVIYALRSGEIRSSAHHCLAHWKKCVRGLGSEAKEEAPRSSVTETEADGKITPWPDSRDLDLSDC
- assay_details: Displacement of [3H]WIN-55212-2 from human recombinant CB2 receptor expressed in CHO-K1 cell membrane
Record form. Attribute: log10(IC50). Fill in for each entry.
Hi team, quick reminder: these entries are log10 of IC50 (nM).

*Q* Query log10(IC50) for CC(NC(=O)c1nn(-c2ccccc2Cl)c(-c2ccc(Cl)cc2)c1Cn1cncn1)c1ccc(Br)cc1 (stereo unspecified)
*A* 3.55

*Q* Query log10(IC50) for CC(NC(=O)c1nn(-c2ccccc2Cl)c(-c2ccc(Br)cc2)c1Cn1cncn1)c1ccc(Br)cc1 (stereo unspecified)
*A* 3.25

*Q* Query log10(IC50) for CC(NC(=O)c1nn(-c2ccc(Cl)cc2Cl)c(-c2ccc(Br)cc2)c1Cn1cncn1)c1ccc(Br)cc1 (stereo unspecified)
*A* 3.81

*Q* Query log10(IC50) for O=C(NC1(c2ccc(Cl)cc2)CC1)c1nn(-c2ccccc2Cl)c(-c2ccc(Br)cc2)c1Cn1cncn1
*A* 3.41

*Q* Query log10(IC50) for O=C(NC1(c2ccccc2)CC1)c1nn(-c2ccccc2Cl)c(-c2ccc(Br)cc2)c1Cn1cncn1
*A* 3.51

*Q* Query log10(IC50) for Cc1cccc(N2CCN(C(=O)c3nn(-c4ccccc4Cl)c(-c4ccc(Br)cc4)c3Cn3cncn3)CC2)c1C
*A* 2.74

*Q* Query log10(IC50) for CC(NC(=O)c1nn(-c2ccccc2Cl)c(-c2ccc(Br)cc2)c1Cn1cncn1)c1ccc(Cl)cc1Cl (stereo unspecified)
*A* 3.38

*Q* Query log10(IC50) for O=C(c1nn(-c2ccccc2Cl)c(-c2ccc(Br)cc2)c1Cn1cncn1)N1CCN(c2cccc(Cl)c2)CC1
*A* 2.47

*Q* Query log10(IC50) for O=C(c1nn(-c2ccccc2Cl)c(-c2ccc(Br)cc2)c1Cn1cncn1)N1CCN(c2cccc(Cl)c2Cl)CC1
*A* 2.76

*Q* Query log10(IC50) for CC(NC(=O)c1nn(-c2ccccc2Cl)c(-c2ccc(Cl)cc2)c1Cn1cncn1)c1ccc(Cl)cc1Cl (stereo unspecified)
*A* 3.52

*Q* Query log10(IC50) for O=C(NC1CCCCC1)c1nn(-c2ccccc2Cl)c(-c2ccc(Br)cc2)c1Cn1cncn1
*A* 3.61

* * *

- measured_target: Cannabinoid receptor 1 (Rattus norvegicus)
- Sequence (P20272 whole entry): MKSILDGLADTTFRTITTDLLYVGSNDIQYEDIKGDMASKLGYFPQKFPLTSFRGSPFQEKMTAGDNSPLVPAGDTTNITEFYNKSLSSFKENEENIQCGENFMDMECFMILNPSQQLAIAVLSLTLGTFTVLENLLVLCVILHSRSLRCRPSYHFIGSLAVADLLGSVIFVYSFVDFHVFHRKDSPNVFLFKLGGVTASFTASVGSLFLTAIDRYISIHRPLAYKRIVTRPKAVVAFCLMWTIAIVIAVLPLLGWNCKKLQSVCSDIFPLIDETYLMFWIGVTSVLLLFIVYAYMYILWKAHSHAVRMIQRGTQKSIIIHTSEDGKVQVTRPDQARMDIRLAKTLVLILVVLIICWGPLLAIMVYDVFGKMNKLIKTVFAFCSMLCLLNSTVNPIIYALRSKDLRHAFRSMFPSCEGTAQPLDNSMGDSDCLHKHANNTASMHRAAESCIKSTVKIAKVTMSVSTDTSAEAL
measure: pIC50
For clarity, pIC50 is expressed as the negative log10 of concentration in mol/L.

*Q* System Cannabinoid receptor 1 (Rattus norvegicus). Read-out pIC50. Item CC(C)(NC(=O)c1nn(-c2ccc(Cl)cc2Cl)c(-c2ccc(Cl)cc2)c1Cn1cncn1)c1ccccc1 . Report value.
*A* 8.13

*Q* System Cannabinoid receptor 1 (Rattus norvegicus). Read-out pIC50. Item O=C(c1nn(-c2ccccc2Cl)c(-c2ccc(Cl)cc2)c1Cn1cncn1)N1CCN(c2cccc(Cl)c2)CC1 . Report value.
*A* 8.39

*Q* System Cannabinoid receptor 1 (Rattus norvegicus). Read-out pIC50. Item CCN1CCN(C(=O)c2nn(-c3ccccc3Cl)c(-c3ccc(Br)cc3)c2Cn2cncn2)CC1 . Report value.
*A* 6.52

*Q* System Cannabinoid receptor 1 (Rattus norvegicus). Read-out pIC50. Item O=C(c1nn(-c2ccc(Cl)cc2Cl)c(-c2ccc(Cl)cc2)c1Cn1cncn1)N1CCN(c2cccc(Cl)c2Cl)CC1 . Report value.
*A* 8.26

*Q* System Cannabinoid receptor 1 (Rattus norvegicus). Read-out pIC50. Item CC(NC(=O)c1nn(-c2ccc(Cl)cc2Cl)c(-c2ccc(Br)cc2)c1Cn1cncn1)c1ccc(Cl)cc1Cl (centres undefined) . Report value.
*A* 8.66

*Q* System Cannabinoid receptor 1 (Rattus norvegicus). Read-out pIC50. Item CCN1CCN(C(=O)c2nn(-c3ccc(Cl)cc3Cl)c(-c3ccc(Br)cc3)c2Cn2cncn2)CC1 . Report value.
*A* 6.55

*Q* System Cannabinoid receptor 1 (Rattus norvegicus). Read-out pIC50. Item O=C(c1nn(-c2ccc(Cl)cc2Cl)c(-c2ccc(Br)cc2)c1Cn1cncn1)N1CCN(c2ccccc2)CC1 . Report value.
*A* 7.90

*Q* System Cannabinoid receptor 1 (Rattus norvegicus). Read-out pIC50. Item O=C(NNC(=O)C1CCCCC1)c1nn(-c2ccc(Cl)cc2Cl)c(-c2ccc(Cl)cc2)c1Cn1cncn1 . Report value.
*A* 6.72

*Q* System Cannabinoid receptor 1 (Rattus norvegicus). Read-out pIC50. Item CCC(C)(C)NC(=O)c1nn(-c2ccc(Cl)cc2Cl)c(-c2ccc(Br)cc2)c1Cn1cncn1 . Report value.
*A* 8.44

*Q* System Cannabinoid receptor 1 (Rattus norvegicus). Read-out pIC50. Item O=C(NC1(c2ccccc2)CC1)c1nn(-c2ccc(Cl)cc2Cl)c(-c2ccc(Br)cc2)c1Cn1cncn1 . Report value.
*A* 8.10

*Q* System Cannabinoid receptor 1 (Rattus norvegicus). Read-out pIC50. Item O=C(NN1CCCCC1)c1nn(-c2ccccc2Cl)c(-c2ccc(Br)cc2)c1Cn1cncn1 . Report value.
*A* 8.28

*Q* System Cannabinoid receptor 1 (Rattus norvegicus). Read-out pIC50. Item CN1CCN(C(=O)c2nn(-c3ccccc3Cl)c(-c3ccc(Br)cc3)c2Cn2cncn2)CC1 . Report value.
*A* 6.05

*Q* System Cannabinoid receptor 1 (Rattus norvegicus). Read-out pIC50. Item O=C(NNC(=O)C1(c2ccc(Cl)cc2)CC1)c1nn(-c2ccc(Cl)cc2Cl)c(-c2ccc(Cl)cc2)c1Cn1cncn1 . Report value.
*A* 7.35

*Q* System Cannabinoid receptor 1 (Rattus norvegicus). Read-out pIC50. Item CC(NC(=O)c1nn(-c2ccc(Cl)cc2Cl)c(-c2ccc(Cl)cc2)c1Cn1cncn1)c1ccc(Br)cc1 (centres undefined) . Report value.
*A* 8.59

*Q* System Cannabinoid receptor 1 (Rattus norvegicus). Read-out pIC50. Item O=C(NC1(c2ccc(Cl)cc2)CC1)c1nn(-c2ccccc2Cl)c(-c2ccc(Cl)cc2)c1Cn1cncn1 . Report value.
*A* 8.04

*Q* System Cannabinoid receptor 1 (Rattus norvegicus). Read-out pIC50. Item Cc1cccc(N2CCN(C(=O)c3nn(-c4ccccc4Cl)c(-c4ccc(Br)cc4)c3Cn3cncn3)CC2)c1C . Report value.
*A* 8.68

*Q* System Cannabinoid receptor 1 (Rattus norvegicus). Read-out pIC50. Item O=C(NC1(C(F)(F)F)CC1)c1nn(-c2ccccc2Cl)c(-c2ccc(Cl)cc2)c1Cn1cncn1 . Report value.
*A* 8.32

*Q* System Cannabinoid receptor 1 (Rattus norvegicus). Read-out pIC50. Item O=C(NC1(c2ccc(Cl)cc2)CC1)c1nn(-c2ccccc2Cl)c(-c2ccc(Br)cc2)c1Cn1cncn1 . Report value.
*A* 8.77

*Q* System Cannabinoid receptor 1 (Rattus norvegicus). Read-out pIC50. Item CC(NC(=O)c1nn(-c2ccccc2Cl)c(-c2ccc(Cl)cc2)c1Cn1cncn1)c1ccc(Cl)cc1Cl (centres undefined) . Report value.
*A* 8.70

*Q* System Cannabinoid receptor 1 (Rattus norvegicus). Read-out pIC50. Item O=C(NC1CCCCC1)c1nn(-c2ccccc2Cl)c(-c2ccc(Cl)cc2)c1Cn1cncn1 . Report value.
*A* 8.18

*Q* System Cannabinoid receptor 1 (Rattus norvegicus). Read-out pIC50. Item O=C(NC1(C(F)(F)F)CC1)c1nn(-c2ccc(Cl)cc2Cl)c(-c2ccc(Br)cc2)c1Cn1cncn1 . Report value.
*A* 8.48

*Q* System Cannabinoid receptor 1 (Rattus norvegicus). Read-out pIC50. Item O=C(NCc1ccccc1)c1nn(-c2ccc(Cl)cc2Cl)c(-c2ccc(Br)cc2)c1Cn1cncn1 . Report value.
*A* 7.89

*Q* System Cannabinoid receptor 1 (Rattus norvegicus). Read-out pIC50. Item O=C(NC1CCCCC1)c1nn(-c2ccc(Cl)cc2Cl)c(-c2ccc(Br)cc2)c1Cn1cncn1 . Report value.
*A* 8.36

*Q* System Cannabinoid receptor 1 (Rattus norvegicus). Read-out pIC50. Item O=C(NC1(C(F)(F)F)CCC1)c1nn(-c2ccc(Cl)cc2Cl)c(-c2ccc(Br)cc2)c1Cn1cncn1 . Report value.
*A* 8.41

*Q* System Cannabinoid receptor 1 (Rattus norvegicus). Read-out pIC50. Item N#CC1(NC(=O)c2nn(-c3ccccc3Cl)c(-c3ccc(Br)cc3)c2Cn2cncn2)CC1 . Report value.
*A* 7.71

*Q* System Cannabinoid receptor 1 (Rattus norvegicus). Read-out pIC50. Item O=C(c1nn(-c2ccc(Cl)cc2Cl)c(-c2ccc(Br)cc2)c1Cn1cncn1)N1CCN(c2cccc(Cl)c2)CC1 . Report value.
*A* 8.14

*Q* System Cannabinoid receptor 1 (Rattus norvegicus). Read-out pIC50. Item O=C(NC1CCCCCC1)c1nn(-c2ccc(Cl)cc2Cl)c(-c2ccc(Br)cc2)c1Cn1cncn1 . Report value.
*A* 8.07

*Q* System Cannabinoid receptor 1 (Rattus norvegicus). Read-out pIC50. Item CC(NC(=O)c1nn(-c2ccccc2Cl)c(-c2ccc(Cl)cc2)c1Cn1cncn1)C(C)(C)C (centres undefined) . Report value.
*A* 8.21

*Q* System Cannabinoid receptor 1 (Rattus norvegicus). Read-out pIC50. Item CC(NC(=O)c1nn(-c2ccccc2Cl)c(-c2ccc(Br)cc2)c1Cn1cncn1)c1ccc(Br)cc1 (centres undefined) . Report value.
*A* 8.96

*Q* System Cannabinoid receptor 1 (Rattus norvegicus). Read-out pIC50. Item CN1CCN(C(=O)c2nn(-c3ccccc3Cl)c(-c3ccc(Cl)cc3)c2Cn2cncn2)CC1 . Report value.
*A* 6.02

*Q* System Cannabinoid receptor 1 (Rattus norvegicus). Read-out pIC50. Item CC(NC(=O)c1nn(-c2ccc(Cl)cc2Cl)c(-c2ccc(Br)cc2)c1Cn1cncn1)c1ccc(Br)cc1 (centres undefined) . Report value.
*A* 8.85

*Q* System Cannabinoid receptor 1 (Rattus norvegicus). Read-out pIC50. Item O=C(NC1(c2ccccc2)CC1)c1nn(-c2ccccc2Cl)c(-c2ccc(Br)cc2)c1Cn1cncn1 . Report value.
*A* 8.70

*Q* System Cannabinoid receptor 1 (Rattus norvegicus). Read-out pIC50. Item CC(C)(NC(=O)c1nn(-c2ccccc2Cl)c(-c2ccc(Cl)cc2)c1Cn1cncn1)c1ccc(Cl)cc1 . Report value.
*A* 8.11

*Q* System Cannabinoid receptor 1 (Rattus norvegicus). Read-out pIC50. Item CCN1CCN(C(=O)c2nn(-c3ccccc3Cl)c(-c3ccc(Cl)cc3)c2Cn2cncn2)CC1 . Report value.
*A* 5.98
